meta.source: patent US20260109721A1

- System: HepG2 cell line
- test.protocol: In vitro toxicity study on HepG2 cell line (resazurin, viability and IC50)
- Type: cell-based, human
- test.conditions: HepG2 cells, 6.25 μM lipid, 48 h post-treatment, resazurin, relative to ethanol vehicle controls
Recorded Viability (%) at different lipid concentrations, mean values for a group of compounds are listed next.
measured.metric: Viability (%) at different lipid concentrations, mean

compound: CCCCCCCC/C=C\CCCCCCCCOC(CCCCCCC/C=C\CCCCCCCC)O[Si](C)(C)OCCCCCCN(C)[C@H](CO)Cc1ccccc1 (stereo partly drawn)
test.target: HepG2 cell line
value.units: %
reported.measurement: 92.0
//
compound: CCCCCCCCC(CCCCCC)C(=O)OCCCCCCN(CCCCO)CCCCCCOC(=O)C(CCCCCC)CCCCCCCC (stereo not drawn) [ALC-0315, reference compound]
test.target: HepG2 cell line
value.units: %
reported.measurement: 76.8
//
compound: CCCCC/C=C\C/C=C\CCCCCCCCOC(CC[C@@H](C)C1CCC2C3CCC4C[C@H](OC)CC[C@]4(C)C3CC[C@@]21C)O[Si](C)(C)OCCCCCCN(CCO)CCO (stereo partly drawn)
test.target: HepG2 cell line
value.units: %
reported.measurement: 101.2
